- Test system: H9c2
- protocol: Cytotoxicity against rat H9c2 cells at 1 uM after 48 hrs by CCK-8 assay
- Assay type: cell-based
- experimental_setup: h9c2, 48 h
assay_readout: Activity

INSERT INTO results (smiles_string, endpoint_result) VALUES
  ('CC[C@H]1C[C@@]2(O)CC[C@@]34C[C@]35CC[C@H](NC)C(C)(C)[C@@H]5CC[C@H]4[C@]2(C)CC1=O', 'Non-Toxic'),
  ('CN[C@@H](C)[C@H]1[C@H](O)C[C@@]2(C)[C@@H]3CC[C@H]4C(C)(C)[C@@H](NC)CC[C@]45C[C@@]35CC[C@]12C', 'Non-Toxic'),
  ('C=C1[C@@H](N(C)C)CC[C@@]23C[C@]24CC[C@]2(O)C[C@H](CC)C(=O)C[C@@]2(C)[C@@H]4CC[C@@H]13', 'Non-Toxic');

====

- Tested on: H9c2
- protocol: Cardioprotective activity against rat H9c2 cells assessed as inhibition of doxorubicin-induced reduction in cell viability at 1 uM preincubated for 30 mins followed by doxorubicin treatment and measured after 48 hrs by CCK8 assay
- Type: functional, cell-based
Calls of active or inactive are those of the source. The calls are words filed in the database; no cut-off is given here.
assay_readout: Activity

Examples from the recorded data:
INSERT INTO assay_data (smiles_string, assay_readout, endpoint_result) VALUES
  ('C=C1[C@@H](N(C)C)CC[C@@]23C[C@]24CC[C@]2(O)C=C(CC)C(=O)C[C@@]2(C)[C@@H]4CC[C@@H]13', 'Activity', 'inactive'),
  ('CCC1=C[C@H]2CC[C@@]34C[C@]35CC[C@H](N(C)C)[C@@H](C)[C@@H]5CC[C@H]4[C@]2(C)CC1=O', 'Activity', 'Active'),
  ('C=C1[C@@H](N(C)C)CC[C@@]23C[C@]24CC[C@]2(O)C[C@H](CC)C(=O)C[C@@]2(C)[C@@H]4CC[C@@H]13', 'Activity', 'inactive'),
  ('CC[C@H]1C[C@@]2(O)CC[C@@]34C[C@]35CC[C@H](NC)C(C)(C)[C@@H]5CC[C@H]4[C@]2(C)CC1=O', 'Activity', 'inactive'),
  ('CN[C@@H](C)[C@H]1[C@H](O)C[C@@]2(C)[C@@H]3CC[C@H]4C(C)(C)[C@@H](NC)CC[C@]45C[C@@]35CC[C@]12C', 'Activity', 'Active');

Request: Activity, test system H9c2, entry CCC1=C[C@@]2(O)CC[C@@]34C[C@]35CC[C@H](NC)C(C)(C)[C@@H]5C=C[C@H]4[C@]2(C)CC1=O
inactive

Note, next up: C=C1[C@@H](NC)CC[C@@]23C[C@]24CC[C@]2(O)C[C@H](CC)C(=O)C[C@@]2(C)[C@@H]4CC[C@@H]13
inactive
